Assay: Half life in rat, iv
Type: ADME, organism-based
Settings: in vivo
parameter: half-life (h)

Reference set (4 entries):
INSERT INTO results (compound, parameter, unit_descriptor, result) VALUES
  ('CC(C)N1C2CCC1CC(c1cc(-c3ccc(F)cc3Cl)c3ccc(=O)n(-c4c(Cl)cccc4Cl)c3c1)C2 (stereo not drawn)', 'half-life', 'h', 3.36),
  ('CC(C)(C)N1CCC(c2cc(-c3ccc(F)cc3F)c3ccc(=O)n(-c4c(Cl)cccc4Cl)c3c2)CC1', 'half-life', 'h', 4.13),
  ('CC(C)(C)N1CCC(Oc2cc(-c3ccccc3Cl)c3ccc(=O)n(-c4c(Cl)cccc4Cl)c3c2)CC1', 'half-life', 'h', 2.33),
  ('CN1C2CCC1CC(c1cc(-c3ccc(F)cc3Cl)c3ccc(=O)n(-c4c(Cl)cccc4Cl)c3c1)C2 (stereo not drawn)', 'half-life', 'h', 3.12);

P. CC1(C)C=C(c2cc(-c3ccc(F)cc3Cl)c3ccc(=O)n(-c4c(Cl)cccc4Cl)c3c2)CC(C)(C)N1
Q. CC(C)(C)N1CCC(c2cc3c(ccc(=O)n3-c3c(Cl)cccc3Cl)c(-c3ccc(F)cc3F)n2)CC1
R. CC(C)(C)N1CCC(c2cc3c(ccc(=O)n3-c3c(Cl)cccc3Cl)c(-c3ccccc3Cl)n2)CC1
S. C[C@@H](C(=O)O)N1CCC(c2cc(-c3ccc(F)cc3Cl)c3ccc(=O)n(-c4c(Cl)cccc4Cl)c3c2)CC1
Endpoint returns the given compounds ordered by ascending half-life. Answer by writing out the labels in the requested order.
S, P, R, Q

====

Biological target: Mitogen-activated protein kinase 14 (Homo sapiens)
Sequence (Q16539 whole entry): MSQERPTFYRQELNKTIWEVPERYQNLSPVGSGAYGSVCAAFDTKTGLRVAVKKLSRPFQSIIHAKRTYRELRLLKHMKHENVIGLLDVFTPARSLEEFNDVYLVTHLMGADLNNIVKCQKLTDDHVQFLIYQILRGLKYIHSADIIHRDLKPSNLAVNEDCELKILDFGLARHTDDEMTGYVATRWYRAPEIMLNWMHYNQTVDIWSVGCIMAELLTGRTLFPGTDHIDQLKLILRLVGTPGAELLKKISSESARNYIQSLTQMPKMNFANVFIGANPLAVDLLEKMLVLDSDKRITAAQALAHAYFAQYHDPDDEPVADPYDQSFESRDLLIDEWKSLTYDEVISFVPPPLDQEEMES
Experiment: Inhibition of TNF alpha release in THP1 cells
Type: functional, cell-based, THP-1
parameter: IC50 (nM)

INSERT INTO measurements (compound, result) VALUES
  ('COC(=O)C(C)N1CCC(c2cc(-c3ccc(F)cc3Cl)c3ccc(=O)n(-c4c(Cl)cccc4Cl)c3c2)CC1 (centres undefined)', 1.3);

a. CC1(C)C=C(c2cc(-c3ccc(F)cc3Cl)c3ccc(=O)n(-c4c(Cl)cccc4Cl)c3c2)CC(C)(C)N1
b. CC(C)(C)N1CCC(c2cc(-c3ccc(F)cc3Cl)c3ccc(=O)n(-c4c(Cl)cccc4Cl)c3c2)CC1
Given a and b , report the one with the higher recorded IC50. Record your answer as the label of the chosen record.
a
(a: 3.32 nM, b: 0.27 nM)

====

Test: Oral bioavailability in rat
Assay type: ADME, organism-based
Conditions: in vivo
parameter: bioavailability (%)

Reference set (4 entries):
INSERT INTO results (compound, parameter, result) VALUES
  ('O=c1ccc2c(-c3ccc(F)cc3Cl)cc(C3CC4CCC(C3)N4)cc2n1-c1c(Cl)cccc1Cl (stereo not drawn)', 'bioavailability', 13),
  ('CC(C)N1C2CCC1CC(c1cc(-c3ccc(F)cc3Cl)c3ccc(=O)n(-c4c(Cl)cccc4Cl)c3c1)C2 (stereo not drawn)', 'bioavailability', 44),
  ('CC(C)(C)N1CCC(c2cc3c(ccc(=O)n3-c3c(Cl)cccc3Cl)c(-c3ccc(F)cc3Cl)n2)CC1', 'bioavailability', 67.3),
  ('CC(C)(C)N1CCC(c2cc3c(ccc(=O)n3-c3c(Cl)cccc3Cl)c(-c3ccc(F)cc3F)n2)CC1', 'bioavailability', 62);

1. CC(C)(C)N1CCC(c2cc3c(ccc(=O)n3-c3c(Cl)cccc3Cl)c(-c3ccccc3Cl)n2)CC1
2. C[C@@H](C(=O)O)N1CCC(c2cc(-c3ccc(F)cc3Cl)c3ccc(=O)n(-c4c(Cl)cccc4Cl)c3c2)CC1
3. CC1(C)C=C(c2cc(-c3ccc(F)cc3Cl)c3ccc(=O)n(-c4c(Cl)cccc4Cl)c3c2)CC(C)(C)N1
Sequence the entries by bioavailability, beginning with the highest number. Answer by writing out the labels in the requested order.
1, 3, 2
